- Study System: UniProt P20272
- Sequence (P20272 whole entry): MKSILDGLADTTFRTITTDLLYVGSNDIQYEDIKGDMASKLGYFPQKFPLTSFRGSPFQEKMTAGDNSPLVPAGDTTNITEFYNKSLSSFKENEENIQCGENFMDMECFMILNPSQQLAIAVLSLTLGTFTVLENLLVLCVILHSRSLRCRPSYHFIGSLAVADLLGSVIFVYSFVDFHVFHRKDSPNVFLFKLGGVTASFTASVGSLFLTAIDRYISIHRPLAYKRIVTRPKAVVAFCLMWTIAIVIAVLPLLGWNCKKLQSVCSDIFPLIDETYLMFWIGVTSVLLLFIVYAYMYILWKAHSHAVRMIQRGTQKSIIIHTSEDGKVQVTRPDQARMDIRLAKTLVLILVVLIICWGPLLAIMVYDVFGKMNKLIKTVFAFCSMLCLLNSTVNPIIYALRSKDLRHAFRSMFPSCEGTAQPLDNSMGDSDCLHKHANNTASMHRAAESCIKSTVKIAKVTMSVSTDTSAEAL
- Experimental Details: Allosteric modulation of CB1 receptor in rat cerebellar membranes assessed as inhibition of CP55,940-induced [35S]GTPgammaS binding

Entry Smiles | IC50
O=C(Nc1ccc(Cl)cc1)Nc1cccc(-c2cccc(N3CCCC3)n2)c1 | 42 to 74 nM

---

Measured pIC50, listed per entry.
- Study System: Cannabinoid receptor 2 (Homo sapiens)
- Sequence (P34972 whole entry): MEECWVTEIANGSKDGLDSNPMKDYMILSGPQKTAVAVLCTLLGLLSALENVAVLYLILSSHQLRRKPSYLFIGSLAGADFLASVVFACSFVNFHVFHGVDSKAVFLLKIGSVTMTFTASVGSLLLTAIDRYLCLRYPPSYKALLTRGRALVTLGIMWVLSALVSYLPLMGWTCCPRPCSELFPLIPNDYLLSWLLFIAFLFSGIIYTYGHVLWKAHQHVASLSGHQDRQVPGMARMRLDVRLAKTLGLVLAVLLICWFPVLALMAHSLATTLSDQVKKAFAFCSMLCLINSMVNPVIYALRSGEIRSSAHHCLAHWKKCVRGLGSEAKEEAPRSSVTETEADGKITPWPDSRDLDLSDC
- Experimental Details: Antagonist activity at human CB2 receptor expressed in CHO cells co-expressing Galpha16 assessed as inhibition of CP55,940-induced calcium mobilization preincubated for 15 mins followed by CP55,490 addition measured at 1 sec interval for 90 secs by calcium-5 dye based FLIPR assay
pIC50: −log10 of the molar value.
Endpoint: pIC50

Entry Smiles | Recorded Measurement
Cc1ccccc1-c1cccc(NC(=O)Nc2ccc(Cl)cc2)c1 | < 5.00
O=C(Nc1ccc(Cl)cc1)Nc1cccc(-c2ccc(F)cc2)c1 | < 5.00
O=C(Nc1ccc(Cl)cc1)Nc1cccc(-c2cncnc2)c1 | 5.47
O=C(Nc1ccc(Cl)cc1)Nc1cccc(-c2cnc3ccccc3c2)c1 | 5.39
O=C(Nc1ccc(Cl)cc1)Nc1cccc(-c2ccc(Cl)c(Cl)c2)c1 | < 5.00
O=C(Nc1ccc(Cl)cc1)Nc1cccc(-c2cccc([N+](=O)[O-])c2)c1 | < 5.00
O=C(Nc1ccc(Cl)cc1)Nc1cccc(-c2cccc(N3CCCC3)n2)c1 | < 5.00
